Hello, the source for this data is the supplement of paper PMC10065799, in case you need it.

Target system: MERTK (UniProt Q12866)
Sequence (Q12866 whole entry, looked up): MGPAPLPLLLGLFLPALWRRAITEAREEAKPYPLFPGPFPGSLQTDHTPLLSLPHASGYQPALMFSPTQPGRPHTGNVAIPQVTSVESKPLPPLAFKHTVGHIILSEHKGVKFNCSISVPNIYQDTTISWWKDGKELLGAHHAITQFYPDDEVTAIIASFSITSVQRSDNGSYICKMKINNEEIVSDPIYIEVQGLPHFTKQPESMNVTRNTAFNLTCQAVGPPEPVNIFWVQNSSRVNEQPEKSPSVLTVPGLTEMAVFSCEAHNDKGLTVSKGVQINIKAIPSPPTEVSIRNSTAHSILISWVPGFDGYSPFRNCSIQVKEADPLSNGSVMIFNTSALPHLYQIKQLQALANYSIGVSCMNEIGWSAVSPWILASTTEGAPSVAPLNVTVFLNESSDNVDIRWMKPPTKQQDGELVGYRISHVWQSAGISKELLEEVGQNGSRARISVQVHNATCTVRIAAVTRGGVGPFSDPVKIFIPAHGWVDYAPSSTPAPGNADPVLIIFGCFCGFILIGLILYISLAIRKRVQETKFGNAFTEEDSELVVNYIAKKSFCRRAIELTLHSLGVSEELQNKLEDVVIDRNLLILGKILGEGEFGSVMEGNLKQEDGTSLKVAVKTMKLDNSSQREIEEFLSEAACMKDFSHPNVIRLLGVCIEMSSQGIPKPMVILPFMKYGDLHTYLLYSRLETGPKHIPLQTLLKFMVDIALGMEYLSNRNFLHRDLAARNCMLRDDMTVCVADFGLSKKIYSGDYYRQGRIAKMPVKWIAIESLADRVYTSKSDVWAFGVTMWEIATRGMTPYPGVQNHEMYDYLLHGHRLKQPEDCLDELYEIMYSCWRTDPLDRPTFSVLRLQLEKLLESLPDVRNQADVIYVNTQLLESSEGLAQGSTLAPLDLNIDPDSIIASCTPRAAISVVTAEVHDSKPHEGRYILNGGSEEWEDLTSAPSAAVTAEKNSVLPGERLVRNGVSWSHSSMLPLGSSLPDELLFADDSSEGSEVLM
Assay remarks: phosphorylation enrichment, bacterial display (enrichment ratio); higher = better substrate or ligand; peptides without Tyr show the background;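 further: 11-residue human phosphosite peptides and single-mutation variants displayed on the E. coli surface, counted by deep sequencing, each peptide's frequency after selection divided by its frequency in the unselected input library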;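 further: frequency after pTyr selection over input frequency; kinase dosed for 20-30% of maximal phosphorylation in three min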
Measured property: phosphorylation enrichment
Answer field: number only, no words.

Entry LEISPYMLSGR [LRRK2_Y1718] — recorded phosphorylation enrichment = 0.588

====

Target system: EPHB2 (UniProt P29323)
Sequence (P29323 whole entry, looked up): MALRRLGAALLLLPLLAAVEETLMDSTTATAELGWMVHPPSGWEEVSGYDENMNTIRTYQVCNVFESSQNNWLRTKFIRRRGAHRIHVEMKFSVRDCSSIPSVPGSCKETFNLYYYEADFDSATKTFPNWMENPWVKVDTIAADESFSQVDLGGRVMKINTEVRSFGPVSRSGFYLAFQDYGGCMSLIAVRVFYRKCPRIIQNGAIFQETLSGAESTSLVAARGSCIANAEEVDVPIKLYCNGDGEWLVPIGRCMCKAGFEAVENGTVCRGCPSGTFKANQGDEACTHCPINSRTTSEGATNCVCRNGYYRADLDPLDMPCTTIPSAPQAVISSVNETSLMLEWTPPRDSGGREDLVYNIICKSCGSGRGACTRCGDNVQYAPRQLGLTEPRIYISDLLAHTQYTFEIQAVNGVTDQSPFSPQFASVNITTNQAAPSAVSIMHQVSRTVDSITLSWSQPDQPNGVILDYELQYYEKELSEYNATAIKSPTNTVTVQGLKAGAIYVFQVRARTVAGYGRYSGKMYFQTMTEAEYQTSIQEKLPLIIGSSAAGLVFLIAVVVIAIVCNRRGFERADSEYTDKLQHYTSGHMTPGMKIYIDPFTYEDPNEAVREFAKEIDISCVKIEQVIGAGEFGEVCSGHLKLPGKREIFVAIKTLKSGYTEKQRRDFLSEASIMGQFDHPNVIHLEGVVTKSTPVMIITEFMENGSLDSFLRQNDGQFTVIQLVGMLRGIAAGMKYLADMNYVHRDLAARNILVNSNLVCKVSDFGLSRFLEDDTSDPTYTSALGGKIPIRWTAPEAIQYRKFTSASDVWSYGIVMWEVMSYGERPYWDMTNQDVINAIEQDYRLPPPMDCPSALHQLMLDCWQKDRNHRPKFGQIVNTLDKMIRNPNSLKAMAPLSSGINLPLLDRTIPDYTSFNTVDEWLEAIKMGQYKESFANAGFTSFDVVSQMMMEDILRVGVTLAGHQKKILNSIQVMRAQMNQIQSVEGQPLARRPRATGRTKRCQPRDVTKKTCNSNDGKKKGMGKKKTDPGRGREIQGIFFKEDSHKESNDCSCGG
Assay remarks: phosphorylation enrichment, bacterial display (enrichment ratio); higher = better substrate or ligand; peptides without Tyr show the background
Label FALSE if phosphorylation enrichment falls below 0.5; label TRUE in every other case.

Please review the entries below; each comes with its answer.
{"Seq string": "VLSIDYFFPPQ [AR_Y552_P549S_YF]", "Assigned class": "TRUE"}
{"Seq string": "NKFTTYLPRLP [C9orf24_Y126_YF]", "Assigned class": "FALSE"}
{"Seq string": "ADQLDYIKALN [HPRT1_Y81_L78Q]", "Assigned class": "FALSE"}
{"Seq string": "PLFRVYGLESL [INSR_Y94_L89P]", "Assigned class": "TRUE"}
{"Seq string": "RLGNQYVNVMN [SLC3A1_Y461]", "Assigned class": "TRUE"}
{"Seq string": "FALAEYTEVKT [ALDH1A3_Y497_YF]", "Assigned class": "FALSE"}
{"Seq string": "KLQKFYRQNPD [EHHADH_Y683_YF]", "Assigned class": "FALSE"}
{"Seq string": "EVVGKYSVHNA [MLH1_Y183_R182K]", "Assigned class": "FALSE"}

QUERY: Please check the record VRRRSYSAGNA [KANK1_Y324_K321R] and state if its phosphorylation enrichment is at or above 0.5.
RESULT: TRUE

QUERY: Could you tell me if the measured phosphorylation enrichment of PLQSEYSSIST [ITGB4_Y1760_T1764S] reaches 0.5 or more?
RESULT: TRUE

QUERY: I'd appreciate it if you could say whether RYVTRSIYNRE [HLA-DQB1_Y62_Y62S] has phosphorylation enrichment at least equal to 0.5.
RESULT: FALSE
